# System: Vero
# PROTOCOL_NOTES: Cytotoxicity against African green monkey Vero cells assessed as reduction in cell viability after 72 hrs by MTT assay
# Format: cell-based
# TEST_PARAMETERS: Chlorocebus sabaeus
RECORDED_METRIC: IC50 (µg/mL)
Field: numeric (µg/mL). Do not append units.

Given item CCCCc1nc(Cl)c(C2NC(=O)NC(C)=C2C(=O)Nc2ccccc2Cl)[nH]1 (stereo not given) , the value recorded as its IC50 is 7.6

Given item CCCCc1nc(Cl)c(C2NC(=O)NC(C)=C2C(=O)Nc2ccc(Cl)cc2)[nH]1 (stereo not given) , the value recorded as its IC50 is 9.4
